Exercise: for every item that follows, state its recorded IC50.
experiment: Inhibition of hedgehog signaling pathway in mouse NIH/3T3 cells expressing wild type Smo assessed as reduction in Gli mRNA expression by RT-PCR method; assay type: cell-based; settings: NIH3T3
Your answer should be a plain number; it is taken to be in nM.

C[C@@H]1CN(c2ccc(-n3cnc4c(-c5ccccc5)cccc4c3=O)cn2)C[C@H](C)O1 yielded IC50 of 257

Form field IC50, entry CS(=O)(=O)c1ccc(C(=O)Nc2ccc(Cl)c(-c3ccccn3)c2)c(Cl)c1 [VISMODEGIB] : 14.4

Kindly note the recorded IC50 for C[C@@H]1CN(c2ccc(-n3cnc4c(-c5ccc(F)cc5)cccc4c3=O)cn2)C[C@H](C)O1 , which is 114

Summary for this compound, Cc1c(C(=O)Nc2ccc(N3C[C@@H](C)O[C@@H](C)C3)nc2)cccc1-c1ccc(OC(F)(F)F)cc1 [SONIDEGIB] : IC50 is 4.4

###

assay: Metabolic stability in human liver microsomes assessed as compound remaining at 1 uM in absence of NADPH incubated for 5 mins by LC-ESI/MS/MS analysis relative to control; assay type: ADME, microsome; conditions: read-out: Stability
Property Label: remaining at 5 min, 1 µM (%)
Hi! Could you send only the number? It should be in %, unit omitted.

The compound O=C1CC2(CCCC2)CC(=O)N1CCCCN1CCN(c2ncccn2)CC1 [BUSPIRONE] showed remaining at 5 min, 1 µM equal to 96.7

Recorded remaining at 5 min, 1 µM (compound C[C@@H]1CN(c2ccc(-n3cnc4c(-c5ccc(F)cc5)cccc4c3=O)cn2)C[C@H](C)O1 ): 91.3

Data point: C[C@@H]1CN(c2ccc(-n3cnc4c(-c5ccccc5)cccc4c3=O)cn2)C[C@H](C)O1 ; remaining at 5 min, 1 µM = 83.7

Please fill in: remaining at 5 min, 1 µM reported for Cc1c(C(=O)Nc2ccc(N3C[C@@H](C)O[C@@H](C)C3)nc2)cccc1-c1ccc(OC(F)(F)F)cc1 [SONIDEGIB] = 99.7

###

Assignment: determine reported remaining at 0.5 h, 1 µM for the given compounds.
test: Metabolic stability in human liver microsomes assessed as compound remaining at 1 uM preincubated for 5 mins followed by UDPGA addition measured after 30 mins by LC-ESI/MS/MS analysis relative to control; type: ADME, microsome; conditions: read-out: Stability
Use % as the unit, but write only the number.

C[C@@H]1CN(c2ccc(-n3cnc4c(-c5ccccc5)cccc4c3=O)cn2)C[C@H](C)O1 has a reported remaining at 0.5 h, 1 µM of 91

// recorded remaining at 0.5 h, 1 µM for C[C@@H]1CN(c2ccc(-n3cnc4c(-c5ccc(F)cc5)cccc4c3=O)cn2)C[C@H](C)O1 : 83.5

So for Cc1c(C(=O)Nc2ccc(N3C[C@@H](C)O[C@@H](C)C3)nc2)cccc1-c1ccc(OC(F)(F)F)cc1 , the logged remaining at 0.5 h, 1 µM turned out to be 88.4

Entry Cc1cc(=O)oc2cc(O)ccc12 ; remaining at 0.5 h, 1 µM = 0.46

###

So I've got a bunch of molecules here, and I need their remaining at 0.5 h, 1 µM values.
experiment: Metabolic stability in human liver microsomes assessed as compound remaining at 1 uM preincubated for 5 mins followed by NADPH addition measured after 30 mins by LC-ESI/MS/MS analysis relative to control; type: ADME, microsome; details: read-out: Stability
The answer is to be given in %; state only the numeric part.

Please fill in: remaining at 0.5 h, 1 µM reported for O=C1CC2(CCCC2)CC(=O)N1CCCCN1CCN(c2ncccn2)CC1 = 5.17

// C[C@@H]1CN(c2ccc(-n3cnc4c(-c5ccccc5)cccc4c3=O)cn2)C[C@H](C)O1 : remaining at 0.5 h, 1 µM value = 68.2

Measured remaining at 0.5 h, 1 µM, Cc1c(C(=O)Nc2ccc(N3C[C@@H](C)O[C@@H](C)C3)nc2)cccc1-c1ccc(OC(F)(F)F)cc1 : 68

Reported remaining at 0.5 h, 1 µM ( C[C@@H]1CN(c2ccc(-n3cnc4c(-c5ccc(F)cc5)cccc4c3=O)cn2)C[C@H](C)O1 ) = 76.3
